Biological target: Sphingomyelin phosphodiesterase (Homo sapiens)
Experiment: Inhibition of mmLDL-stimulated acid sphingomyelinase in human PBMC lysates using BODIPY FL C5-sphingomyelin as substrate preincubated for 30 mins followed by mmLDL stimulation measured after 2 hrs by HPLC method
pIC50: −log10 of the molar value.
pIC50: recorded values
ASSAY_READOUT: pIC50

>>> measured("COc1ccc(CCN(C)CCCN2Cc3ccccc3CCc3ccccc32)cc1")
4.77
>>> measured("COc1ccc(CC(=O)N(C)CCCN2c3ccccc3CCc3ccccc32)cc1")
3.97
>>> measured("COc1ccc(CCN(C)CCN2c3ccccc3CCc3ccccc32)cc1")
4.77
>>> measured("COc1cc(CCN(C)CCCn2c3ccccc3c3ccccc32)c(OC)cc1CCN(C)CCCn1c2ccccc2c2ccccc21")
5.00
>>> measured("COc1ccc(CCNCCCNC2c3ccccc3CCc3ccccc32)cc1")
4.77
>>> measured("COc1ccc(CCN(C)CCCn2ccc3ccccc32)cc1")
4.68
>>> measured("COc1ccc(CCN(C)CCCN2c3ccccc3CCc3ccccc32)cc1OC")
4.51
>>> measured("COc1ccc(CCN(C)CCCn2c3ccccc3c3ccccc32)cc1OC")
4.85

====

Molecular target: UniProtKB P17405
Experiment: Inhibition of mmLDL-stimulated acid sphingomyelinase in human PBMC lysates using BODIPY FL C5-sphingomyelin as substrate preincubated for 30 mins followed by mmLDL stimulation measured after 2 hrs by HPLC method
ASSAY_READOUT: IC50

>>> measured("COc1ccc(CCNCCNc2cccc3ccccc23)cc1OC")
"112 µM"
>>> measured("COc1ccc(CC(=O)N(C)CCN2c3ccccc3CCc3ccccc32)cc1")
"> 250 µM"
>>> measured("COc1ccc(CCN(C)CCCN2C(=O)COc3ccccc32)cc1")
"38 µM"
>>> measured("COc1ccc(CC(=O)N(C)CCCn2c3ccccc3c3ccccc32)cc1")
"> 250 µM"
>>> measured("COc1ccc(CCN2[C@H](C)CN(CCCn3c4ccccc4c4ccccc43)C[C@@H]2C)cc1OC")
"141 µM"

====

Target: Sphingomyelin phosphodiesterase (Homo sapiens, UniProt P17405)
Sequence (P17405 whole entry): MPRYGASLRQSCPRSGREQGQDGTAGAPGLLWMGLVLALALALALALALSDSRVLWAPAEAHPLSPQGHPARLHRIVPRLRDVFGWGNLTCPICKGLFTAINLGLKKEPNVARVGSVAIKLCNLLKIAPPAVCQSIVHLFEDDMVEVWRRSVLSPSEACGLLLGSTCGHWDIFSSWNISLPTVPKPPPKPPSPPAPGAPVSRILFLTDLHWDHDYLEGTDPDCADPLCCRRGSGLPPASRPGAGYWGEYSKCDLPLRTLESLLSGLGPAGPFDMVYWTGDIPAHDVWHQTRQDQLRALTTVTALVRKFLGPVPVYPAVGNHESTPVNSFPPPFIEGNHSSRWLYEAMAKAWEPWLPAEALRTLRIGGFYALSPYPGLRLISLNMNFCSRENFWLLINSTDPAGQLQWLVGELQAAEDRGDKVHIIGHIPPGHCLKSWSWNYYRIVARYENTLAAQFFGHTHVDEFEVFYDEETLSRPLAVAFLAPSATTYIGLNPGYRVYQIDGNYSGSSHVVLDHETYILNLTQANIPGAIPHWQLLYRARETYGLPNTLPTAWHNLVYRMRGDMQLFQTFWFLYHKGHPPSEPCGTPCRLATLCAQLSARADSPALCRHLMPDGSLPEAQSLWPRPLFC
Assay: Inhibition of mmLDL-stimulated acid sphingomyelinase in human PBMC lysates using BODIPY FL C5-sphingomyelin as substrate preincubated for 30 mins followed by mmLDL stimulation measured after 2 hrs by HPLC method
pIC50: −log10 of the molar value.
ASSAY_READOUT: pIC50

>>> measured("COc1ccc(CCN(C)CCCN2c3ccccc3Sc3ccccc32)cc1OC")
4.80
>>> measured("COc1ccc(CCN(C)CCCN2c3ccccc3Oc3ccccc32)cc1OC")
4.89

====

Target: Sphingomyelin phosphodiesterase (Homo sapiens, UniProt P17405)
Assay: Inhibition of mmLDL-stimulated acid sphingomyelinase in human PBMC lysates using BODIPY FL C5-sphingomyelin as substrate preincubated for 30 mins followed by mmLDL stimulation measured after 2 hrs by HPLC method
pIC50: −log10 of the molar value.
Known pIC50 of a selection of molecules
ASSAY_READOUT: pIC50

>>> measured("COc1ccc(CCN(C)CCCN2c3ccccc3Sc3ccc(Cl)cc32)cc1OC")
4.92
>>> measured("CN(C)CCCN1c2ccccc2CCc2ccccc21 [IMIPRAMINE]")
5.30
>>> measured("COc1ccc(CCNCCNc2cccc3ccccc23)cc1")
3.94
>>> measured("COc1ccc(CCN2CCCn3c4c(c5ccccc53)CCCC42)cc1 (stereo unspecified)")
4.82
>>> measured("COc1ccc(CCNCCCNC2c3ccccc3CCc3ccccc32)cc1OC")
4.41
>>> measured("COc1ccc(CCN2[C@H](C)CN(CCCN3c4ccccc4Oc4ccccc43)C[C@@H]2C)cc1")
4.37
>>> measured("CN(C)CCCN1c2ccccc2Sc2ccc(Cl)cc21 [CHLORPROMAZINE]")
4.96
>>> measured("COc1ccc(CCN(C)CCn2c3ccccc3c3ccccc32)cc1")
5.22
>>> measured("COc1ccc(CCN(C)CCC=C2c3ccccc3CCc3ccccc32)cc1")
5.00

====

Biological target: Sphingomyelin phosphodiesterase (Homo sapiens)
Test: Inhibition of mmLDL-stimulated acid sphingomyelinase in human PBMC lysates using BODIPY FL C5-sphingomyelin as substrate preincubated for 30 mins followed by mmLDL stimulation measured after 2 hrs by HPLC method
ASSAY_READOUT: IC50 (µM)

>>> measured("COc1ccc(CCNCc2cccc3ccccc23)cc1OC")
96
>>> measured("COc1ccc(CCN(C)CCCN2c3ccccc3Sc3ccccc32)cc1")
9
>>> measured("COc1ccc(CCNCc2cccc3ccccc23)cc1")
240
>>> measured("COc1ccc(Cn2c3ccccc3c3ccccc32)cc1")
156
>>> measured("COc1ccc(CCN(C)CCC=C2c3ccccc3CCc3ccccc32)cc1OC")
10

====

Reported pIC50 values for a set of molecules
Target: Sphingomyelin phosphodiesterase (Homo sapiens, UniProt P17405)
Assay: Inhibition of mmLDL-stimulated acid sphingomyelinase in human PBMC lysates using BODIPY FL C5-sphingomyelin as substrate preincubated for 30 mins followed by mmLDL stimulation measured after 2 hrs by HPLC method
pIC50: −log10 of the molar value.
ASSAY_READOUT: pIC50

>>> measured("COc1ccc(CCN(C)CCCn2c3ccccc3c3ccccc32)cc1")
"4.77 to 4.89"
>>> measured("COc1ccc(CCN(C)CCCN(c2ccccc2)c2ccccc2)cc1")
"< 3.60"
>>> measured("COc1ccc(Cn2c(=O)[nH]c3ccccc3c2=O)cc1")
"< 3.60"

====

Here the recorded pIC50 is given for each entry.
Biological target: UniProt:P17405
Experiment: Inhibition of mmLDL-stimulated acid sphingomyelinase in human PBMC lysates using BODIPY FL C5-sphingomyelin as substrate preincubated for 30 mins followed by mmLDL stimulation measured after 2 hrs by HPLC method
pIC50: −log10 of the molar value.
ASSAY_READOUT: pIC50

>>> measured("COc1ccc(CCN2CCn3c4c(c5ccccc53)CCCC42)cc1 (stereo not drawn)")
"< 3.60"
>>> measured("COc1ccc(CCN(C)C(F)(F)C(F)(F)C(F)(F)C(F)(F)n2c3ccccc3c3ccccc32)cc1")
"< 3.60"
>>> measured("COc1ccc(CCN(Cc2ccccc2)c2ccccn2)cc1")
"< 3.60"
